B1: FOXJ1 (parent)
chain: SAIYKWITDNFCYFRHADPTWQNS

# Variants of: B1
# Test method notes: protein stability index of a GFP-peptide fusion (GPS, HEK-293T) (PSI 1-6); higher = more stable;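 note: lentivirally expressed fusions sorted by FACS into six bins by GFP to DsRed ratio, PSI derived from sequencing read proportions per bin multiplied by bin number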
# Measurement context: c terminus: a fixed tail appended
Property name: protein stability index
One number for each entry.

Some solved entries appear below for comparison.
- D18S: 3.4
- W21Q: 2.9
- P19Q: 3.21
- S1C: 3.86
- A17R: 3.34
- T8C: 2.73

For the 5 variants below, give their protein stability index values.
1. F11L
2. S24M
3. I3V
4. A17S
5. Y13K

OUTPUT:
3.24
2.55
3.81
2.61
1.86

Please report protein stability index for every entry that follows.
1. T20S
2. D18L
3. N10D

OUTPUT:
1. 3.35
2. 2.74
3. 1.58

Batch: protein stability index for all items listed.
1. Y4A
2. P19W
3. P19E
4. D18F

OUTPUT:
1: 1.47; 2: 2.35; 3: 3.59; 4: 1.9

Source listed as the supplement of paper PMC10567573.
